Data provenance is PubChem BioAssay AID1845215.

- System: SW 1271 complex tumor spheroid viability
- EXPERIMENT_SUMMARY: Anticancer human tumor SW 1271 cell line growth inhibition;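 note: spheroids exposed to agents for seven days before readout; percent of DMSO vehicle control luminescence so 100% = vehicle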
- SETUP_CONDITIONS: second compound 0.03 µM; first compound 0.3 µM; stronger effect = lower value
Parameter viability, T/C: see the listing below.
MEASURE_NAME: viability, T/C (%)

>  <COMPOUND>
Cc1sc2c(c1C)C(c1ccc(Cl)cc1)=NC(CC(=O)Nc1ccc(O)cc1)c1nnc(C)n1-2 (centres undefined) + CC[C@@]1(O)C(=O)OCc2c1cc1n(c2=O)Cc2cc3c(CN(C)C)c(O)ccc3nc2-1

>  <MEASURE_NAME>
viability, T/C

>  <UNIT_SYMBOL>
%

>  <MEASURED_VALUE>
2.67

$$$$
>  <COMPOUND>
CNCc1ccc(-c2cc(-c3nc(-c4ccc(S(=O)(=O)C(C)C)cc4)cnc3N)on2)cc1 + CC[C@@]1(O)C(=O)OCc2c1cc1n(c2=O)Cc2cc3c(CN(C)C)c(O)ccc3nc2-1

>  <MEASURE_NAME>
viability, T/C

>  <UNIT_SYMBOL>
%

>  <MEASURED_VALUE>
34.2

$$$$
>  <COMPOUND>
Cn1ncnc1[C@H]1c2n[nH]c(=O)c3cc(F)cc(c23)N[C@@H]1c1ccc(F)cc1 + CC[C@@]1(O)C(=O)OCc2c1cc1n(c2=O)Cc2cc3c(CN(C)C)c(O)ccc3nc2-1

>  <MEASURE_NAME>
viability, T/C

>  <UNIT_SYMBOL>
%

>  <MEASURED_VALUE>
25.2

$$$$
>  <COMPOUND>
O=C(c1cc(Cc2n[nH]c(=O)c3ccccc23)ccc1F)N1CCN(C(=O)C2CC2)CC1 + CC[C@@]1(O)C(=O)OCc2c1cc1n(c2=O)Cc2cc3c(CN(C)C)c(O)ccc3nc2-1

>  <MEASURE_NAME>
viability, T/C

>  <UNIT_SYMBOL>
%

>  <MEASURED_VALUE>
25.5

$$$$

---

- Tested on: SW 1271 complex tumor spheroid viability
- EXPERIMENT_SUMMARY: Anticancer human tumor SW 1271 cell line growth inhibition; active means viability on the fitted dose curve at most 10% of control; inactive means the rest;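 note: spheroids exposed to agents for seven days before readout; percent of DMSO vehicle control luminescence so 100% = vehicle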
- SETUP_CONDITIONS: second compound 1 µM; first compound 0.949 µM
Possible outcomes: active, inactive

>  <MOLECULE>
O=C(c1cc(Cc2n[nH]c(=O)c3ccccc23)ccc1F)N1CCN(C(=O)C2CC2)CC1 + Cn1nnc2c(C(N)=O)ncn2c1=O

>  <CLASS_LABEL>
inactive

$$$$
>  <MOLECULE>
Cc1sc2c(c1C)C(c1ccc(Cl)cc1)=NC(CC(=O)Nc1ccc(O)cc1)c1nnc(C)n1-2 (centres undefined) + Cn1nnc2c(C(N)=O)ncn2c1=O

>  <CLASS_LABEL>
active

$$$$
>  <MOLECULE>
CNCc1ccc(-c2cc(-c3nc(-c4ccc(S(=O)(=O)C(C)C)cc4)cnc3N)on2)cc1 + Cn1nnc2c(C(N)=O)ncn2c1=O

>  <CLASS_LABEL>
active

$$$$
>  <MOLECULE>
Cn1ncnc1[C@H]1c2n[nH]c(=O)c3cc(F)cc(c23)N[C@@H]1c1ccc(F)cc1 + Cn1nnc2c(C(N)=O)ncn2c1=O

>  <CLASS_LABEL>
inactive

$$$$

---

List of viability, T/C values.
- System: SW 1271 complex tumor spheroid viability
- EXPERIMENT_SUMMARY: Anticancer human tumor SW 1271 cell line growth inhibition;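 note: spheroids exposed to agents for seven days before readout; percent of DMSO vehicle control luminescence so 100% = vehicle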
- SETUP_CONDITIONS: second compound 0.03 µM; first compound 0.949 µM; stronger effect = lower value

>  <COMPOUND>
Cn1ncnc1[C@H]1c2n[nH]c(=O)c3cc(F)cc(c23)N[C@@H]1c1ccc(F)cc1 + CC[C@@]1(O)C(=O)OCc2c1cc1n(c2=O)Cc2cc3c(CN(C)C)c(O)ccc3nc2-1

>  <UNIT_SYMBOL>
%

>  <viability, T/C>
25

$$$$
>  <COMPOUND>
CNCc1ccc(-c2cc(-c3nc(-c4ccc(S(=O)(=O)C(C)C)cc4)cnc3N)on2)cc1 + CC[C@@]1(O)C(=O)OCc2c1cc1n(c2=O)Cc2cc3c(CN(C)C)c(O)ccc3nc2-1

>  <UNIT_SYMBOL>
%

>  <viability, T/C>
12

$$$$
>  <COMPOUND>
Cc1sc2c(c1C)C(c1ccc(Cl)cc1)=NC(CC(=O)Nc1ccc(O)cc1)c1nnc(C)n1-2 (centres undefined) + CC[C@@]1(O)C(=O)OCc2c1cc1n(c2=O)Cc2cc3c(CN(C)C)c(O)ccc3nc2-1

>  <UNIT_SYMBOL>
%

>  <viability, T/C>
1.56

$$$$
>  <COMPOUND>
O=C(c1cc(Cc2n[nH]c(=O)c3ccccc23)ccc1F)N1CCN(C(=O)C2CC2)CC1 + CC[C@@]1(O)C(=O)OCc2c1cc1n(c2=O)Cc2cc3c(CN(C)C)c(O)ccc3nc2-1

>  <UNIT_SYMBOL>
%

>  <viability, T/C>
29.5

$$$$
